test settings: 298.15 K; 101.33 kPa; Liquid; Vibrating tube method
recorded metric: mass density (kg/m3)

CCCCCCO
815.652
CCCCCCCCCCO
826.489
CCCCOCCO
896.312
CCCCCCCCO
821.877

----------
test settings: 298.15 K; 101.33 kPa; Liquid; Capillary tube (Ostwald / Ubbelohde) method
recorded metric: viscosity (mPa·s)

CCCCOCCO [2-butoxyethan-1-ol]
2.885

1. CCCCCCO [hexan-1-ol]
2. CCCCCCCCO [octan-1-ol]
3. CCCCCCCCCCO [decan-1-ol]
Exercise: # rank_down: sort by viscosity, max first Please list the labels according to the requested order.
Solution: 3, 2, 1
